Target: 5-HT1 receptor
Test: Affinity to 5-HT1 receptor
Settings: read-out: Affinity to 5-HT1 receptor (MIC50; mole concentration for 50% inhibition of binding); 2 nM ^3H-5-HT
Quantity measured: IC50 (µM)
Give the number; µM is assumed, so skip it.

CC(C)C[C@H]1C(=O)N2CCC[C@H]2[C@]2(O)O[C@](NC(=O)[C@@H]3C=C4c5cccc6[nH]c(Br)c(c56)C[C@H]4N(C)C3)(C(C)C)C(=O)N12 [Bromocriptine, reference compound]: 0.1

Query string: Report IC50 for CCCNC(CCC)Cc1c[nH]c2ccccc12.Cl (centres unmarked) [Compound No. 20, Hydrochloride] please.
Result string: 7
